Overview of recorded pKi for various compounds
TEST_TARGET: Vasopressin V1a receptor (Homo sapiens, UniProt P37288)
Sequence (P37288 whole entry): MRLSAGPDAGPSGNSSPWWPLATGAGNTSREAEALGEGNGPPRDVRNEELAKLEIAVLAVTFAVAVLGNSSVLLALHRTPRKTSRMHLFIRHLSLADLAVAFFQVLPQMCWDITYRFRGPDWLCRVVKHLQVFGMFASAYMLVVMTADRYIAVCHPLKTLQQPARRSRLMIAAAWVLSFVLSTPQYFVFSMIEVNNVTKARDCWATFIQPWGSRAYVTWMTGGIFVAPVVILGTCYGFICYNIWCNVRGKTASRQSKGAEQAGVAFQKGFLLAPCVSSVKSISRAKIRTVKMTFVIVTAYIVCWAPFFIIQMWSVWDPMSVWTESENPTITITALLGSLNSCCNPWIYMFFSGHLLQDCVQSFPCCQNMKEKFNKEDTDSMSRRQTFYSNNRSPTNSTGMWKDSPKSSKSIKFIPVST
METHOD_DESCRIPTION: Antagonist activity at human vasopressin V1A receptor
pKi: −log10 of the molar value.

The following compounds have reported results that may help.
COc1ccc(N(C)C(=O)N2CC(Oc3cccc(F)c3C)C2)cn1; < 5.38
COc1ccc(N(C)C(=O)N2CC(Oc3ccc(F)cc3C)C2)cn1; 5.89
COc1ccc(-n2c(C)nnc2N2CC(Oc3cc(F)cc(F)c3C)C2)cn1; < 5.38
COc1ccc(N(C)C(=O)N2CC(Oc3ccc(F)cc3Cl)C2)cn1; 6.11
COc1ccc(N(C)C(=O)N2CC(Oc3cc(F)cc(F)c3C)C2)cn1; < 5.38

QUERY: Lookup: pKi / Vasopressin V1a receptor (Homo sapiens, UniProt P37288) / `COc1ccc(-n2c(C)nnc2N2CC(Oc3cccc(F)c3C)C2)cn1`
RESULT: < 5.38

QUERY: Now consider `CCN(C(=O)N1CC(Oc2cccc(F)c2C)C1)c1ccc(OC)nc1` .
RESULT: < 5.38
